B1: glmS ribozyme (parent)
chain: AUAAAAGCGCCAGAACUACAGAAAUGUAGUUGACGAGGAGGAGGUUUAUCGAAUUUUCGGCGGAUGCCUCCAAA

Variants of: B1
Test: kcat; higher = faster cleavage; RNA array
Details: with glucosamine-6-phosphate
This sample holds only a part of the variants without activity.
# label = true if kcat >= 0.0003 s⁻¹ else false

Solved entries (count: 3):
{"Changes": "G9A U55A", "Class Name": "false"}
{"Changes": "U56G C70U", "Class Name": "true"}
{"Changes": "U54G C70A", "Class Name": "false"}

Please tell me: is the variant A15U A52U C68A at or over 0.0003 s⁻¹ in terms of kcat?
false

Hello, I need to know if A6C U45G has measured kcat not below 0.0003 s⁻¹. Thanks!
false

Determine whether this variant has kcat no lower than 0.0003 s⁻¹: U57A G66U
false

Hello, I need to know if G37U G38C has measured kcat not below 0.0003 s⁻¹. Thanks!
false

Does U46G A53G have a reported kcat of at least 0.0003 s⁻¹?
true

Determine whether this variant has kcat no lower than 0.0003 s⁻¹: C34U U54C C68G
false
